molecular target: Survivin-GB1Borealin f.l. complex (human, UniProt O15392;Q53HL2); test: ITC
Sequence (O15392 whole entry, chain 1 of 2): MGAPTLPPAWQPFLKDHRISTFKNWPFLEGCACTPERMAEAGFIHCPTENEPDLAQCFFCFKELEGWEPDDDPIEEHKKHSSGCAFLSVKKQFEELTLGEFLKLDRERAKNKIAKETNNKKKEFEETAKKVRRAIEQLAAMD
Sequence (Q53HL2 whole entry, chain 2 of 2): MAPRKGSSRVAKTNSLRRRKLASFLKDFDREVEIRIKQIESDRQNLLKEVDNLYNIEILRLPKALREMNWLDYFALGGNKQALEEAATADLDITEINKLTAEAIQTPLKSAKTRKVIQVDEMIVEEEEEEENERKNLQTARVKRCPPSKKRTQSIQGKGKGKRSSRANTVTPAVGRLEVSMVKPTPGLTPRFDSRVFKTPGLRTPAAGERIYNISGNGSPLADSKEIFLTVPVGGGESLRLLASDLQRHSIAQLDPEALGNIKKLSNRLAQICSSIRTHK
assay-endpoint: Kd (nM)
Respond numerically; units are nM and should not be typed.

Task: Suppose we examine the binder INCENP 1-69, His6-tagged (domain or fragment) MGTTAPGPIHLLELCDQKLMEFLCNMDNKDLVWLEEIQEEAERMFTREFSKEPELMPKTPSQKNRRKKR ; what Kd value has been reported?
Result: 27
